Where do the numbers come from? From ChEMBL document CHEMBL4513216.

Provide the recorded INHIBITION for the entries that follow.
# Test system: Plasmodium berghei
# test_details: Screen against P. berghei liver stage (PbLuc), transformed with Luciferase, at 10uM
# Assay type: functional, HepG2
# stated_conditions: tested at 10 uM
Screen size: about 69,000 compounds; about 8,600 (12%) showed an effect of 50% or more. For the sample, strong results were picked, then their nearest neighbours and some compounds at random.
Give bare numbers, in %.

Here's what some known entries look like.
Query: Which measured INHIBITION value corresponds to `CCn1cnnc1CNC(=O)c1ccc(Cl)cc1I` ?
Reply: 44.1

Query: Query (compound): `COC(=O)c1ccc(S(=O)(=O)N2CCCn3ncnc32)s1` ; field requested: INHIBITION
Reply: 3.84

Query: Query (compound): CCC(NC(=O)C1CCN(S(C)(=O)=O)CC1)c1ccc(C)c(C)c1 (stereo unspecified) ; field requested: INHIBITION
Reply: 58.5

Query: Field request: INHIBITION | item: N#Cc1csc(CN(CC(=O)N2CCCC2)CC2CCCO2)c1 (stereo unspecified)
Reply: 70.9

Query: Give the measured INHIBITION of Cc1cnc(N2CCO[C@@H]3CC(COCc4cccnc4)C[C@H]32)nc1 (stereo partly specified) .
Reply: 45.4

Query: Suppose we examine the compound CCC(NC(=O)C1CCN(S(=O)(=O)N(C)C)CC1)c1ccc(C)c(C)c1 (stereo unspecified) ; what INHIBITION value has been reported?
Reply: 21.8

Query: Consider the compound shown here: CC(C)(C)CC1CCCN1Cc1nc(-c2ccco2)no1 (stereo unspecified) What is its recorded INHIBITION?
Reply: 76.2

Query: # get_value(readout='INHIBITION', item= `COCCNC(=O)[C@@H]1CC[C@@H]2[C@@H](CCN2Cc2cnn(C)c2)O1` )
Reply: 7.11

Can you give me INHIBITION for all of these, one by one?
1. Cn1cccc1-c1nnc(C2(c3ccc4c(c3)OCO4)CCOCC2)o1
2. COc1cccc(N2CCC(CNc3cc(C)nc4ncnn34)C2)c1 (stereo unspecified)
3. Cc1cc(C(=O)NCC2CCC3(CC2)OCCO3)[nH]n1

Reply:
[41.8, 65.5, 41.4]

Each compound below has a reported value. Please supply its INHIBITION.
1. Cc1nc(C)n(CC2CCCN2CC(=O)NCCc2cccs2)n1 (stereo unspecified)
2. Cc1cc(NCC2CCN(c3ccccc3)C2)n2ncnc2n1 (stereo unspecified)
3. Cc1nc(C)n(CC2CCCN2CCc2cccs2)n1 (stereo unspecified)
4. Cc1cc(NCC2CCCCC2)n2ncnc2n1
5. C[C@@H]1CN(C(=O)C2CCOCC2)C[C@]12CCN(c1cccnc1)C2=O
6. CCC(NC(=O)C1CCN(S(C)(=O)=O)CC1)c1ccc(C)cc1C (stereo unspecified)
7. Cc1nc(-c2ccccc2)n(CC(=O)NC(C)C)n1

Reply:
1. 43.6
2. 78.9
3. 52
4. 9.8
5. 18.5
6. 88
7. 31.2

Please give INHIBITION, item by item, for the list that follows.
1. N#Cc1cccc(CN(CC(=O)N2CCCC2)CC2CCCO2)c1 (stereo unspecified)
2. c1cc(-c2nnc(C3(c4ccc5c(c4)OCO5)CCOCC3)o2)ccn1
3. CCc1cc(NCc2ccccc2CN2CCCC2)n2ncnc2n1
4. CCn1cc2[nH]c(OC)c(CNC(=O)CCC3CCCC3)cc-2c1=O
5. CCC(NC(=O)C1CCN(S(C)(=O)=O)CC1)c1ccc(C)cc1 (stereo unspecified)
6. CN1CCC2(CCCN(S(=O)(=O)c3ccc(-c4cnco4)s3)C2)C1 (stereo unspecified)
7. CCC(CN1CCCC1)NC(=O)Cc1c(C)[nH]c2cc(C)cc(C)c12 (stereo unspecified)

Reply:
-4.91
40.7
11.1
34.4
33
37.3
6.32

Hi team, please reply with INHIBITION for each item in this list.
1. Cc1[nH]ncc1C(=O)NCC1CCC2(CC1)OCCO2
2. CN1CCC(c2cncc(-c3cccc(Cl)c3)n2)CC1
3. COc1ccc(C(C(=O)O)N2CCN(C3CCCC3)CC2)cc1C (stereo unspecified)
4. N#Cc1cccnc1NCc1ccc(S(=O)(=O)NC2CC2)cc1
5. Cc1cc(NCc2ccccc2CN2CCCCC2)n2ncnc2n1

Reply:
1. 32
2. 19.6
3. 43
4. -15.2
5. 54.4

---

# Tested on: Plasmodium berghei
# test_details: Screen against P. berghei liver stage (PbLuc), transformed with Luciferase, at 10uM
# Assay type: functional, HepG2
# stated_conditions: tested at 10 uM
The whole screen tested about 69,000 compounds, of which about 8,600 (12%) showed an effect of 50% or more. The sample as a whole holds a higher share of strong results than the screen did.
Would you mind telling me the reported INHIBITION of each entry?
The reply must contain the numeric value and, after it, the unit.

Query: If you can, please state the reported INHIBITION value of Cc1cc(C)n(C2CCCN(C(=O)c3ccc(F)c(F)c3)C2)n1 (stereo not drawn) .
Reply: 18.7%

Query: Reported INHIBITION, compound CNC(=O)c1ccc(C(=O)N2CCCC2c2c(C)nn(C)c2C)cn1 (stereo not drawn) : ____
Reply: 31.2%

Give one value of INHIBITION per listed compound.
1. COc1c(CNC2CCc3ccccc32)c(C(C)C)nn1C (stereo not drawn)
2. CCOCC1COCCC12CCN(C(=O)CCOC)CC2 (stereo not drawn)
3. CCc1nc(CN(C)C(=O)CSC)no1
4. CC(=O)c1cccc(-n2nc(C(C)=O)c(C(C)=O)c2C)c1
5. CNC(=O)COC1COC2(CCN(Cc3cccnc3OC)CC2)C1 (stereo not drawn)

Reply:
1: 11.2%; 2: 8.67%; 3: -4.96%; 4: 0.325%; 5: 40.5%

---

# Tested on: Plasmodium berghei
# test_details: Screen against P. berghei liver stage (PbLuc), transformed with Luciferase, at 10uM
# Format: functional, HepG2
# stated_conditions: tested at 10 uM
Screen size: about 69,000 compounds; about 8,600 (12%) showed an effect of 50% or more. The entries come from a sample that favours strong results as a whole.
readout: INHIBITION (%)
Numbers only, in %.

Take a look at these entries with their results.
Query: Query for Plasmodium berghei: what INHIBITION does the record show for `CC(C)C(=O)NCCC(=O)N1CCN(c2ccccn2)CC1` ?
Reply: 24.1

Query: // fetch Plasmodium berghei INHIBITION for `COc1cc(C)sc1C(=O)N1CCC(Nc2cccnc2)CC1`
Reply: 18.5

Query: Identify the measured INHIBITION of Cc1nc(Nc2nnc(C)s2)cc(C2CCCN2C2CCCC2)n1 (configuration not stated) for Plasmodium berghei.
Reply: 28

Query: Query the reported INHIBITION for Plasmodium berghei; item: Cn1ccc(C(=O)N2CCCC2c2cc(CCO)[nH]n2)n1 (configuration not stated)
Reply: 28.69

Query: What value of INHIBITION on Plasmodium berghei does CS(=O)(=O)N1CCCC1c1cccc(Cc2ccccc2F)n1 (configuration not stated) have?
Reply: -51.4

Query: Identify the measured INHIBITION of CN1CCCC1c1cc2cccnc2n1Cc1ccc(F)cc1 (configuration not stated) for Plasmodium berghei.
Reply: 30.85

Query: Field: INHIBITION (Plasmodium berghei). Entry: CCn1c(C)nnc1CN(C)C1CCN(CC2CCC2)C1 (configuration not stated)
Reply: -4.16

Query: Fill in the recorded INHIBITION for this compound, with Plasmodium berghei as test system: `CC(C)CC(=O)NCCCc1cc(N)n(-c2ccccc2)n1`
Reply: 16.6

Query: Report INHIBITION for Cc1cnn(CC2CN(Cc3nc(-c4ccccn4)no3)CCO2)c1 (configuration not stated) tested on Plasmodium berghei.
Reply: 21.6

Query: Param readout = INHIBITION; param system = Plasmodium berghei; param query = COc1cc(C)sc1C(=O)N1CCCCC1c1ccccn1 (configuration not stated) ; response: value
Reply: 47.7

I would be grateful if you could provide INHIBITION for each of the following entries.
1. Cc1ccc(N2CCCc3sc(C(=O)NCc4cccnc4)nc32)nn1
2. Cc1ccc(N2CCCc3sc(C(=O)NCc4ccncc4)nc32)nn1

Reply:
63.5
42.5

For each of the items listed, what is its INHIBITION?
1. CC(C)OCCC(=O)NCCC(=O)N1CCN(c2ccccn2)CC1
2. Cc1cnn(C2CN(Cc3nc(-c4ccsc4)no3)C2)c1
3. OC(CNCCc1nnc2ccccn12)c1ccc2c(c1)OCO2 (configuration not stated)

Reply:
[14.2, 15.5, -20.5]

// for each compound in input: emit INHIBITION
1. Cc1cnn(C2CN(Cc3nc(-c4ccccn4)no3)C2)c1
2. O=C1NCCCCC1NC(=O)N1CCCc2ccccc21 (configuration not stated)
3. Cc1cnn(C2CN(CC(O)COCc3ccc4c(c3)OCO4)C2)c1 (configuration not stated)

Reply:
[51.1, 34.2, 32.3]
